tested on: Aspergillus fumigatus; experiment: Antifungal activity against Aspergillus fumigatus using 1 x 10^5 spore/100 uL after 72 hrs by microdilution method; assay type: functional
Entries whose MIC is below 80 ×10⁻² umol take true; entries at or above 80 ×10⁻² umol take false.

>>> assigned_label("C/C(=N\\NC(=O)C1=C(O)c2ccccc2S(=O)(=O)N1C)c1ccccc1Br")
"false"
>>> assigned_label("C/C(=N\\NC(=O)C1=C(O)c2ccccc2S(=O)(=O)N1C)c1ccccc1Cl")
"true"
>>> assigned_label("C/C(=N\\NC(=O)C1=C(O)c2ccccc2S(=O)(=O)N1C)c1ccc(N)cc1")
"true"
>>> assigned_label("C/C(=N\\NC(=O)C1=C(O)c2ccccc2S(=O)(=O)N1C)c1ccc(O)cc1")
"false"
>>> assigned_label("C/C(=N\\NC(=O)C1=C(O)c2ccccc2S(=O)(=O)N1)c1ccc(Cl)c(Cl)c1")
"true"
>>> assigned_label("C/C(=N\\NC(=O)C1=C(O)c2ccccc2S(=O)(=O)N1)c1cccc(O)c1")
"false"
>>> assigned_label("C/C(=N\\NC(=O)C1=C(O)c2ccccc2S(=O)(=O)N1C)c1ccc(Cl)c(Cl)c1")
"true"
>>> assigned_label("C/C(=N\\NC(=O)C1=C(O)c2ccccc2S(=O)(=O)N1)c1ccc(F)cc1F")
"true"
>>> assigned_label("COc1cccc(/C(C)=N/NC(=O)C2=C(O)c3ccccc3S(=O)(=O)N2C)c1")
"false"

====

test system: Aspergillus flavus; assay: Antifungal activity against Aspergillus flavus using 1 x 10^5 spore/100 uL assessed as 99.5% fungal killing of original inoculum after 72 hrs by microdilution method; type: functional
Measured Metric: MFC (×10⁻² umol)

>>> recorded_measurement("COc1ccc(/C(C)=N/NC(=O)C2=C(O)c3ccccc3S(=O)(=O)N2C)cc1")
170
>>> recorded_measurement("COc1ccc(/C(C)=N/NC(=O)C2=C(O)c3ccccc3S(=O)(=O)N2)cc1")
169.3
>>> recorded_measurement("C/C(=N\\NC(=O)C1=C(O)c2ccccc2S(=O)(=O)N1)c1ccc(Cl)cc1")
163
>>> recorded_measurement("C/C(=N\\NC(=O)C1=C(O)c2ccccc2S(=O)(=O)N1)c1ccc(Cl)cc1Cl")
143.5
>>> recorded_measurement("C/C(=N\\NC(=O)C1=C(O)c2ccccc2S(=O)(=O)N1C)c1ccc(Cl)c(Cl)c1")
150
>>> recorded_measurement("C/C(=N\\NC(=O)C1=C(O)c2ccccc2S(=O)(=O)N1C)c1ccccc1Cl")
170.2
>>> recorded_measurement("C/C(=N\\NC(=O)C1=C(O)c2ccccc2S(=O)(=O)N1)c1ccccc1Br")
177.7
>>> recorded_measurement("C/C(=N\\NC(=O)C1=C(O)c2ccccc2S(=O)(=O)N1C)c1ccccc1Br")
168.5

====

tested on: Escherichia coli; test: Antibacterial activity against Escherichia coli using 1 x 10^4 CFU/ml inoculum after 24 hrs by microdilution method; format: functional
Measured Metric: MIC (×10⁻² umol)

>>> recorded_measurement("C/C(=N\\NC(=O)C1=C(O)c2ccccc2S(=O)(=O)N1C)c1ccc(I)cc1")
29.3
>>> recorded_measurement("C/C(=N\\NC(=O)C1=C(O)c2ccccc2S(=O)(=O)N1)c1cccc(O)c1")
19.7
>>> recorded_measurement("C/C(=N\\NC(=O)C1=C(O)c2ccccc2S(=O)(=O)N1)c1ccc(I)cc1")
29.5
>>> recorded_measurement("C/C(=N\\NC(=O)C1=C(O)c2ccccc2S(=O)(=O)N1C)c1ccccc1Cl")
31.7
>>> recorded_measurement("C/C(=N\\NC(=O)C1=C(O)c2ccccc2S(=O)(=O)N1)c1ccc(Cl)cc1")
31.2
>>> recorded_measurement("C/C(=N\\NC(=O)C1=C(O)c2ccccc2S(=O)(=O)N1C)c1ccc(F)cc1F")
28.9
>>> recorded_measurement("C/C(=N\\NC(=O)C1=C(O)c2ccccc2S(=O)(=O)N1C)c1cccc(O)c1")
19.3
>>> recorded_measurement("C/C(=N\\NC(=O)C1=C(O)c2ccccc2S(=O)(=O)N1C)c1ccc(O)cc1")
21
>>> recorded_measurement("C/C(=N\\NC(=O)C1=C(O)c2ccccc2S(=O)(=O)N1)c1ccccc1O")
19.9
>>> recorded_measurement("C/C(=N\\NC(=O)C1=C(O)c2ccccc2S(=O)(=O)N1C)c1ccc(Cl)cc1")
31
>>> recorded_measurement("COc1ccc(/C(C)=N/NC(=O)C2=C(O)c3ccccc3S(=O)(=O)N2)cc1")
27.8
>>> recorded_measurement("COc1cccc(/C(C)=N/NC(=O)C2=C(O)c3ccccc3S(=O)(=O)N2C)c1")
25.6
>>> recorded_measurement("C/C(=N\\NC(=O)C1=C(O)c2ccccc2S(=O)(=O)N1)c1ccc(O)cc1")
21.3
>>> recorded_measurement("C/C(=N\\NC(=O)C1=C(O)c2ccccc2S(=O)(=O)N1)c1ccc(N)cc1")
22.9
>>> recorded_measurement("COc1cccc(/C(C)=N/NC(=O)C2=C(O)c3ccccc3S(=O)(=O)N2)c1")
25.6
>>> recorded_measurement("C/C(=N\\NC(=O)C1=C(O)c2ccccc2S(=O)(=O)N1C)c1ccccc1O")
19.6
>>> recorded_measurement("C/C(=N\\NC(=O)C1=C(O)c2ccccc2S(=O)(=O)N1C)c1ccc(N)cc1")
22.4
>>> recorded_measurement("C/C(=N\\NC(=O)C1=C(O)c2ccccc2S(=O)(=O)N1)c1ccc(F)cc1F")
29.2
>>> recorded_measurement("CN[C@@H]1[C@H](O[C@H]2[C@H](O[C@H]3[C@H](O)[C@@H](O)[C@H](N=C(N)N)[C@@H](O)[C@@H]3N=C(N)N)O[C@@H](C)[C@]2(O)C=O)O[C@@H](CO)[C@H](O)[C@H]1O")
16.5
>>> recorded_measurement("COc1ccc(/C(C)=N/NC(=O)C2=C(O)c3ccccc3S(=O)(=O)N2C)cc1")
27.9
>>> recorded_measurement("C/C(=N\\NC(=O)C1=C(O)c2ccccc2S(=O)(=O)N1)c1ccccc1Cl")
32.5

====

tested on: Aspergillus niger; assay: Antifungal activity against Aspergillus niger using 1 x 10^5 spore/100 uL after 72 hrs by microdilution method; assay type: functional
Entries whose MIC is below 80 ×10⁻² umol take yes (1); entries at or above 80 ×10⁻² umol take no (0).

>>> assigned_label("C/C(=N\\NC(=O)C1=C(O)c2ccccc2S(=O)(=O)N1)c1ccccc1Cl")
"no (0)"
>>> assigned_label("C/C(=N\\NC(=O)C1=C(O)c2ccccc2S(=O)(=O)N1C)c1ccc(N)cc1")
"no (0)"
>>> assigned_label("C/C(=N\\NC(=O)C1=C(O)c2ccccc2S(=O)(=O)N1C)c1ccc(F)cc1F")
"yes (1)"
>>> assigned_label("C/C(=N\\NC(=O)C1=C(O)c2ccccc2S(=O)(=O)N1C)c1ccc(Br)cc1")
"no (0)"
>>> assigned_label("C/C(=N\\NC(=O)C1=C(O)c2ccccc2S(=O)(=O)N1)c1ccc(Cl)cc1")
"no (0)"
>>> assigned_label("C/C(=N\\NC(=O)C1=C(O)c2ccccc2S(=O)(=O)N1C)c1ccc(O)cc1")
"no (0)"
>>> assigned_label("C/C(=N\\NC(=O)C1=C(O)c2ccccc2S(=O)(=O)N1)c1cccc(O)c1")
"no (0)"
>>> assigned_label("COc1cccc(/C(C)=N/NC(=O)C2=C(O)c3ccccc3S(=O)(=O)N2C)c1")
"no (0)"
>>> assigned_label("C/C(=N\\NC(=O)C1=C(O)c2ccccc2S(=O)(=O)N1)c1ccc(O)cc1")
"no (0)"
>>> assigned_label("C/C(=N\\NC(=O)C1=C(O)c2ccccc2S(=O)(=O)N1C)c1ccc(Cl)cc1Cl")
"yes (1)"
>>> assigned_label("C/C(=N\\NC(=O)C1=C(O)c2ccccc2S(=O)(=O)N1)c1ccc(I)cc1")
"no (0)"
>>> assigned_label("C/C(=N\\NC(=O)C1=C(O)c2ccccc2S(=O)(=O)N1C)c1cccc(O)c1")
"no (0)"
>>> assigned_label("COc1cccc(/C(C)=N/NC(=O)C2=C(O)c3ccccc3S(=O)(=O)N2)c1")
"no (0)"
>>> assigned_label("C/C(=N\\NC(=O)C1=C(O)c2ccccc2S(=O)(=O)N1)c1ccccc1Br")
"no (0)"
>>> assigned_label("COc1ccc(/C(C)=N/NC(=O)C2=C(O)c3ccccc3S(=O)(=O)N2C)cc1")
"no (0)"
>>> assigned_label("C/C(=N\\NC(=O)C1=C(O)c2ccccc2S(=O)(=O)N1)c1ccc(Cl)cc1Cl")
"yes (1)"
>>> assigned_label("CN1C(C(=O)NN)=C(O)c2ccccc2S1(=O)=O")
"no (0)"
>>> assigned_label("C/C(=N\\NC(=O)C1=C(O)c2ccccc2S(=O)(=O)N1)c1ccc(N)cc1")
"no (0)"
>>> assigned_label("C/C(=N\\NC(=O)C1=C(O)c2ccccc2S(=O)(=O)N1C)c1ccccc1O")
"no (0)"
